Where these numbers come from: paper PMC10397247

Reported interaction score values are given for each entry in this list.
SYSTEM_TESTED: T1, 4H3112-AA
T1 chain: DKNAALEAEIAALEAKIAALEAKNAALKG
ASSAY_PROCEDURE: two-hybrid library CCmax;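 further: natural log of median RNA to DNA barcode read ratio; higher means stronger binding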
ASSAY_SETUP: mean of both orientations

// query interaction score value for entry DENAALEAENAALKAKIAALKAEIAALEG [4H1257-AA]
0.173

Same again, this time with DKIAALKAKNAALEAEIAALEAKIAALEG [4H2949-AA]
-0.654

Could you do the same for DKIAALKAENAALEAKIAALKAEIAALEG [4H2729-AA] , please?
-0.662

Follow-up entry: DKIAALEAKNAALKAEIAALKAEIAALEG [4H2505-AA]
-1.11

And for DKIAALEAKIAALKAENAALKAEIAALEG [4H2393-AA] ?
-1.21
